# Assay Summary: in vitro
# Settings: human, Caco-2, Caco-2 (cm/sec)
*1 amine or outer side, *2 acyl side, *3 side chain or, on linkers, in order; H or OH if unused. Where a SMILES comes first, the peptide text is derived from it. Bridges are numbered along the chain shown (N, C = ends). [ ]: non-standard residue; d: D form. The star is where a group is joined. ξ: configuration not given here. hPhe(3-OMe,4-CONHMe) = CNC(=O)c1ccc(CC[C@H](N)C(=O)O)cc1OC; X11 = CNC(=O)c1ccc(CCN(CC(=O)[*:2])[*:1])cc1OC; NMePhe(3-Cl) = CN[C@@H](Cc1cccc(Cl)c1)C(=O)O; Tyr(3-F) = N[C@@H](Cc1ccc(O)c(F)c1)C(=O)O; NMeW = CN[C@@H](Cc1c[nH]c2ccccc12)C(=O)O; NMehPhe = CN[C@@H](CCc1ccccc1)C(=O)O; X6 = O=C([C@H](CCCCO)N[*:1])[*:2]; NMeF = CN[C@@H](Cc1ccccc1)C(=O)O; NMeGABA = CN(CCCC(=O)[*:2])[*:1]; NMeI = CC[C@H](C)[C@H](NC)C(=O)O; NMeξIle = CC[C@H](C)C(NC)C(=O)O; NMeL = CN[C@@H](CC(C)C)C(=O)O; ξNMeF = CNC(Cc1ccccc1)C(=O)O; NMeV = CN[C@H](C(=O)O)C(C)C; NMeAbu = CC[C@H](NC)C(=O)O; NMeA = CN[C@@H](C)C(=O)O; Piperidide = C1CCN(*)CC1; NBuGly = CCCCNCC(=O)O; Propyl(3-OH) = OCCC*; Sar = CNCC(=O)O; tBu = CC(C)(C)*

{"Compound": "CC[C@H]1C(=O)N[C@@H](CC(C)C)C(=O)N(C)[C@@H](CC(C)C)C(=O)N(C)C(Cc2ccccc2)C(=O)N[C@@H](CCc2ccc(C(=O)NC)c(OC)c2)C(=O)N(C)[C@@H](CC(C)C)C(=O)N(C)[C@@H](CC(C)C)C(=O)N[C@@H]([C@@H](C)O)C(=O)N(C)CC(=O)N(C)[C@@H](CC(C)C)C(=O)N[C@H](C(=O)N2CCCCC2)CC(=O)N1C (stereo partly drawn) [AP204] ([NMeAbu]L[NMeL][ξNMeF][hPhe(3-OMe,4-CONHMe)][NMeL][NMeL]T[Sar][NMeL]D-Piperidide; lactam N-11)", "Papp": "1.6 ×10⁻⁶ cm/s"}
{"Compound": "CC[C@H](C)C1C(=O)N[C@@H]([C@@H](C)O)C(=O)N(C)CC(=O)N(C)[C@@H](CC(C)C)C(=O)N[C@H](C(=O)N2CCCCC2)CC(=O)N(C)[C@@H](C)C(=O)N[C@@H](CC(C)C)C(=O)N(C)[C@@H](CC(C)C)C(=O)N(C)[C@@H](Cc2c[nH]c3ccccc23)C(=O)N[C@@H](C(C)C)C(=O)N(C)[C@@H](CC(C)C)C(=O)N1C (stereo partly drawn) [pd102] ([NMeA]L[NMeL][NMeW]V[NMeL][NMeξIle]T[Sar][NMeL]D-Piperidide; lactam N-11)", "Papp": "1.1 ×10⁻⁶ cm/s"}
{"Compound": "CC(C)C[C@@H]1NC(=O)[C@H](Cc2ccccc2)N(C)C(=O)[C@@H](C(C)C)NC(=O)C[C@@H](C(=O)N2CCCCC2)NC(=O)[C@H](CC(C)C)N(C)C(=O)[C@H](Cc2cccc(Cl)c2)N(C)C(=O)[C@H](COCCCO)NC(=O)[C@H](CC(C)C)N(C)C(=O)CN(C)C(=O)[C@H]([C@@H](C)O)NC(=O)[C@H](CC(C)C)N(C)C1=O [AP90] ([dV][NMeF]L[NMeL]T[Sar][NMeL]S(Propyl(3-OH))[NMePhe(3-Cl)][NMeL]D-Piperidide; lactam N-11)", "Papp": "3.3 ×10⁻⁶ cm/s"}
{"Compound": "CC(C)C[C@@H]1NC(=O)[C@H](Cc2ccccc2)N(C)C(=O)[C@@H](C(C)C)NC(=O)C[C@@H](C(=O)N2CCCCC2)NC(=O)[C@H](CC(C)C)N(C)C(=O)[C@H](CC(C)C)N(C)C(=O)[C@H](Cc2ccc(O)c(F)c2)NC(=O)[C@H](CC(C)C)N(C)C(=O)CN(C)C(=O)[C@H]([C@@H](C)O)NC(=O)[C@H](CC(C)C)N(C)C1=O [pd128] ([dV][NMeF]L[NMeL]T[Sar][NMeL][Tyr(3-F)][NMeL][NMeL]D-Piperidide; lactam N-11)", "Papp": "0.17 ×10⁻⁶ cm/s"}
{"Compound": "CC(C)C[C@@H]1NC(=O)[C@H](C)N(C)C(=O)C[C@@H](C(=O)N2CCCCC2)NC(=O)[C@H](CC(C)C)N(C)C(=O)CN(C)C(=O)[C@H]([C@@H](C)O)NC(=O)[C@H](Cc2ccccc2)N(C)C(=O)[C@H](Cc2ccccc2)N(C)C(=O)[C@H](CC(C)C)NC(=O)[C@H](Cc2ccccc2)N(C)C(=O)[C@H](CC(C)C)N(C)C1=O [pd204] ([NMeA]L[NMeL][NMeF]L[NMeF][NMeF]T[Sar][NMeL]D-Piperidide; lactam N-11)", "Papp": "2 ×10⁻⁶ cm/s"}
{"Compound": "CC(C)C[C@H]1NC(=O)C[C@@H](C(=O)N2CCCCC2)NC(=O)[C@H](C)N(C)C(=O)[C@H](CC(C)C)N(C)C(=O)[C@H](COC(C)(C)C)NC(=O)[C@H](CC(C)C)N(C)C(=O)CN(C)C(=O)[C@H]([C@@H](C)O)NC(=O)[C@H](CC(C)C)N(C)C(=O)[C@H](Cc2ccc(O)c(F)c2)NC(=O)[C@H](Cc2ccccc2)N(C)C1=O [pd118] ([dL][NMeF][Tyr(3-F)][NMeL]T[Sar][NMeL]S(tBu)[NMeL][NMeA]D-Piperidide; lactam N-11)", "Papp": "0.2 ×10⁻⁶ cm/s"}
{"Compound": "CC[C@H](C)[C@H]1C(=O)N[C@@H](Cc2ccc(O)cc2)C(=O)N(C)CC(=O)N(C)[C@@H](CC(C)C)C(=O)N[C@H](C(=O)N2CCCCC2)CC(=O)N(C)[C@@H](C)C(=O)N[C@@H](CC(C)C)C(=O)N(C)[C@@H](C)C(=O)N(C)[C@@H](Cc2ccccc2)C(=O)N[C@@H](C(C)C)C(=O)N(C)[C@@H](C)C(=O)N1C [pd116] ([NMeA]L[NMeA][NMeF]V[NMeA][NMeI]Y[Sar][NMeL]D-Piperidide; lactam N-11)", "Papp": "0.14 ×10⁻⁶ cm/s"}
{"Compound": "CCCCN1CC(=O)N(C)[C@@H](C)C(=O)N[C@@H](COC(C)(C)C)C(=O)N(C)[C@@H](CC(C)C)C(=O)N(CCc2ccc(C(=O)NC)c(OC)c2)CC(=O)N[C@H](C(=O)N2CCCCC2)CC(=O)N[C@H](CC(C)C)C(=O)N(C)[C@@H](Cc2ccccc2)C(=O)N[C@@H](CC(C)C)C(=O)N(C)[C@@H](CC(C)C)C(=O)N[C@@H]([C@@H](C)O)C1=O [AP220] ([dL][NMeF]L[NMeL]T[NBuGly][NMeA]S(tBu)[NMeL][X11]D-Piperidide; lactam N-11)", "Papp": "0.8 ×10⁻⁶ cm/s"}
{"Compound": "CC(C)C[C@@H]1NC(=O)[C@H](CCc2ccccc2)N(C)C(=O)[C@H](CCc2ccccc2)N(C)C(=O)[C@H](CCCCO)NC(=O)[C@H](C(C)C)N(C)C(=O)CCCN(C)C(=O)C[C@@H](C(=O)N2CCCCC2)NC(=O)[C@H](CC(C)C)N(C)C(=O)[C@H](CC(C)C)N(C)C(=O)[C@H]([C@@H](C)O)NC(=O)[C@H](CC(C)C)N(C)C1=O [Compound B03] ([NMeGABA][NMeV][X6][NMehPhe][NMehPhe]L[NMeL]T[NMeL][NMeL]D-Piperidide; lactam N-11)", "Papp": "0.27 ×10⁻⁶ cm/s"}

====

# Assay Summary: in vitro
# Settings: human, Caco-2, Caco-2 (cm/sec)
Where a SMILES comes first, the peptide text is derived from it. Bridges are numbered along the chain shown (N, C = ends). [ ]: non-standard residue; d: D form. The star is where a group is joined. ξ: configuration not given here. NMePhe(3-Cl) = CN[C@@H](Cc1cccc(Cl)c1)C(=O)O; NMeF = CN[C@@H](Cc1ccccc1)C(=O)O; NMeL = CN[C@@H](CC(C)C)C(=O)O; Propyl(2R-OH) = C[C@@H](O)C*; ξIle = CC[C@H](C)C(N)C(=O)O; Piperidide = C1CCN(*)CC1; NBuGly = CCCCNCC(=O)O; NPrGly = CCCNCC(=O)O; X3 = C[C@H](O)C*; Sar = CNCC(=O)O; tBu = CC(C)(C)*
Papp: recorded values

{"Molecule": "CCCCN1CC(=O)N(C)[C@@H](Cc2ccccc2)C(=O)N(C)[C@@H](CC(C)C)C(=O)N[C@@H](COC(C)(C)C)C(=O)N(C)[C@@H](CC(C)C)C(=O)N[C@H](C(=O)N2CCCCC2)CC(=O)N(C)CC(=O)N(C)[C@@H](Cc2cccc(Cl)c2)C(=O)N[C@@H](COC[C@@H](C)O)C(=O)N(C)[C@@H](CC(C)C)C(=O)N[C@@H]([C@@H](C)O)C1=O [AP77] ([Sar][NMePhe(3-Cl)]S(Propyl(2R-OH))[NMeL]T[NBuGly][NMeF][NMeL]S(tBu)[NMeL]D-Piperidide; lactam N-11)", "Papp (×10⁻⁶ cm/s)": 1}
{"Molecule": "CCCN1CC(=O)N(C)[C@@H](Cc2cccc(Cl)c2)C(=O)N(C)[C@@H](CC(C)C)C(=O)N[C@@H](COC[C@H](C)O)C(=O)N(C)[C@@H](CC(C)C)C(=O)N[C@H](C(=O)N2CCCCC2)CC(=O)N(C)CC(=O)N(C)[C@@H](Cc2ccccc2)C(=O)NC([C@@H](C)CC)C(=O)N(C)[C@@H](CC(C)C)C(=O)N[C@@H]([C@@H](C)O)C1=O (stereo partly drawn) [AP68] ([Sar][NMeF][ξIle][NMeL]T[NPrGly][NMePhe(3-Cl)][NMeL]S(X3)[NMeL]D-Piperidide; lactam N-11)", "Papp (×10⁻⁶ cm/s)": 0.24}

These data points were gathered from patent US20230096766A1.
